Overview of reported log10 of IC50 across a group of compounds:
Test system: SKMEL-5 melanoma
Experiment: MTT cytotoxicity assay, SKMEL-5
Details: Homo sapiens, SK-MEL-5, […], read-out: Cytotoxicity ED50, SKMEL-5
reported-endpoint: log10 of IC50 (log10 of the value in µM)

>  <compound>
CCN(CC)CCOC(=O)/C(=C/c1cccc(OC)c1)c1cc(OC)c(OC)c(OC)c1 [24f]

>  <log10 of IC50>
0.83

$$$$
>  <compound>
CCNC(=O)/C(=C/c1ccc(OC)cc1)c1cc(OC)c(OC)c(OC)c1 [compound 24d]

>  <log10 of IC50>
0.85

$$$$
>  <compound>
COC(=O)/C(=C/c1ccc(OC)cc1)c1cc(OC)c(OC)c(OC)c1 [compound 24a]

>  <log10 of IC50>
-2.19

$$$$
>  <compound>
COc1ccc(/C=C\c2cc(OC)c(OC)c(OC)c2)c(Cl)c1

>  <log10 of IC50>
-1.77

$$$$
>  <compound>
COc1ccc(/C=C\c2cc(OC)c(OC(C)=O)c(OC)c2)cc1 [15l]

>  <log10 of IC50>
-0.22

$$$$
>  <compound>
COc1ccc(C(=O)c2cc(OC)c(OC)c(OC)c2)cc1

>  <log10 of IC50>
-1.92

$$$$
>  <compound>
COc1ccc(/C=C(/C(=O)O)c2cc(OC)c(OC)c(OC)c2)cc1 [compound 23a]

>  <log10 of IC50>
0.96

$$$$
>  <compound>
COc1ccc(CC2c3cc(OC)c(OC)c(OC)c3CCN2C)cc1 (centres unmarked)

>  <log10 of IC50>
0.94

$$$$
>  <compound>
COc1ccccc1CCc1cc(OC)c(OC)c(OC)c1

>  <log10 of IC50>
1.30

$$$$
>  <compound>
COc1cccc(/C=C/c2cc(OC)c(OC)c(OC)c2)c1

>  <log10 of IC50>
1.02

$$$$
>  <compound>
COc1ccc(/C=C/c2cc(OC)cc(OC)c2)cc1 [16i]

>  <log10 of IC50>
-0.06

$$$$
>  <compound>
CCN(CC)CCOC(=O)/C(=C/c1ccc(OC)cc1)c1cc(OC)c(OC)c(OC)c1 [24e]

>  <log10 of IC50>
0.43

$$$$

* * *

Tested on: tubulin
Experiment: Inhibition of tubulin polymerization (turbidimetry)
Format: biochemical, bovine
Conditions: second series (Tables V-VII, IX); read-out: Inhibition of Tubulin Polymerization IC50 (±S.D.)
pIC50: −log10 of the molar value.

>  <compound>
COc1ccc(/C=C\c2cc(OC)c(OC(C)=O)c(OC)c2)cc1 [15l]

>  <subject-of-test>
tubulin

>  <pIC50>
4.62

$$$$
>  <compound>
COC(=O)/C(=C/c1cccc(OC)c1)c1cc(OC)c(OC)c(OC)c1 [compound 24b]

>  <subject-of-test>
tubulin

>  <pIC50>
< 4.40

$$$$
>  <compound>
COc1ccc(CC2c3cc(OC)c(OC)c(OC)c3CCN2C)cc1 (centres unmarked)

>  <subject-of-test>
tubulin

>  <pIC50>
< 4.40

$$$$
>  <compound>
COc1ccc(/C(=C\c2cc(OC)c(OC)c(OC)c2)C(=O)O)cc1 [23c]

>  <subject-of-test>
tubulin

>  <pIC50>
< 4.40

$$$$
>  <compound>
COc1ccc2c(c1)CN1CCc3c(cc(OC)c(OC)c3OC)C1C2 (centres unmarked)

>  <subject-of-test>
tubulin

>  <pIC50>
< 4.40

$$$$

* * *

System: DMS 273 small cell lung cancer
Assay: Cytotoxicity, DMS 273
Details: read-out: cytotoxicity GI50, DMS 273; 50% growth inhibition; average of two determinations; 8640 min
Overview of reported GI50 across a group of compounds:
reported-endpoint: GI50 (µM)

>  <compound>
CCc1ccc(N=Cc2cc(OC)c(OC)c(OC)c2)cc1 [108b]

>  <reported-endpoint>
GI50

>  <value-relation-sign>
>

>  <reported-result>
100

$$$$
>  <compound>
CCCc1ccc(N=Cc2cc(OC)c(OC)c(OC)c2)cc1 [108g]

>  <reported-endpoint>
GI50

>  <value-relation-sign>
>

>  <reported-result>
100

$$$$
>  <compound>
CCc1ccc(NCc2cc(OC)c(OC)c(OC)c2)cc1 [109b]

>  <reported-endpoint>
GI50

>  <value-relation-sign>
=

>  <reported-result>
0.135

$$$$
>  <compound>
COc1cc(CNc2ccc(C)cc2)cc(OC)c1OC [109a]

>  <reported-endpoint>
GI50

>  <value-relation-sign>
=

>  <reported-result>
0.0926

$$$$
>  <compound>
COc1ccc(N=Cc2cc(OC)c(OC)c(OC)c2)cc1 [108c]

>  <reported-endpoint>
GI50

>  <value-relation-sign>
=

>  <reported-result>
33

$$$$
>  <compound>
COc1cc(CNc2ccc(SC)cc2)cc(OC)c1OC [109e]

>  <reported-endpoint>
GI50

>  <value-relation-sign>
=

>  <reported-result>
3.09

$$$$

* * *

Test system: MCF-7 breast carcinoma
Experiment: MTT cytotoxicity assay, MCF-7
Settings: Homo sapiens, MCF7, […], read-out: Cytotoxicity ED50, MCF-7
pIC50: −log10 of the molar value.
reported-endpoint: pIC50

>  <molecule>
COc1cc(/C=C/c2cc(OC)c(OC)c(OC)c2)cc(OC)c1OC

>  <subject-of-test>
MCF-7 breast carcinoma

>  <value-relation-sign>
<

>  <reported-result>
4.60

$$$$
>  <molecule>
COc1ccc(/C=C\c2cc(OC)cc(OC)c2)cc1 [15i]

>  <subject-of-test>
MCF-7 breast carcinoma

>  <value-relation-sign>
=

>  <reported-result>
6.80

$$$$
>  <molecule>
COc1cc(CCc2cc(OC)c(OC)c(OC)c2)cc(OC)c1OC

>  <subject-of-test>
MCF-7 breast carcinoma

>  <value-relation-sign>
<

>  <reported-result>
4.60

$$$$
>  <molecule>
COc1cc(/C=C\c2ccc(SC)cc2)cc(OC)c1OC [compound 15c]

>  <subject-of-test>
MCF-7 breast carcinoma

>  <value-relation-sign>
=

>  <reported-result>
8.27

$$$$
>  <molecule>
COc1cc(CCc2cc(OC)c(OC)c(OC)c2)cc(OC)c1

>  <subject-of-test>
MCF-7 breast carcinoma

>  <value-relation-sign>
<

>  <reported-result>
4.60

$$$$
>  <molecule>
COc1ccccc1CCc1cc(OC)c(OC)c(OC)c1

>  <subject-of-test>
MCF-7 breast carcinoma

>  <value-relation-sign>
=

>  <reported-result>
4.93

$$$$
>  <molecule>
COc1cc(/C=C/c2ccc([N+](=O)[O-])cc2)cc(OC)c1OC

>  <subject-of-test>
MCF-7 breast carcinoma

>  <value-relation-sign>
<

>  <reported-result>
4.60

$$$$
>  <molecule>
COc1cc(/C=C\c2ccc(N(C)C)cc2)cc(OC)c1OC

>  <subject-of-test>
MCF-7 breast carcinoma

>  <value-relation-sign>
=

>  <reported-result>
8.24

$$$$
>  <molecule>
COc1ccc(/C=C/c2cc(OC)c(O[Si](C)(C)C(C)(C)C)c(OC)c2)cc1 [16k]

>  <subject-of-test>
MCF-7 breast carcinoma

>  <value-relation-sign>
<

>  <reported-result>
4.60

$$$$
>  <molecule>
COc1cc(/C=C/c2ccc(OC(C)=O)cc2)cc(OC)c1OC

>  <subject-of-test>
MCF-7 breast carcinoma

>  <value-relation-sign>
=

>  <reported-result>
5.02

$$$$

* * *

Tested on: DMS 273 small cell lung cancer
Assay: Cytotoxicity, DMS 273
Conditions: read-out: cytotoxicity GI50, DMS 273; 50% growth inhibition; average of two determinations; 8640 min
Counter-ions that a name gives are not always drawn.
Overview of reported GI50 across a group of compounds:

>  <compound>
CCOc1ccc(NCc2cc(OC)c(OC)c(OC)c2)cc1 [109d]

>  <subject-of-test>
DMS 273 small cell lung cancer

>  <readout-unit>
µM

>  <value-relation-sign>
=

>  <GI50>
0.296

$$$$
>  <compound>
COc1cc(CNc2ccc(C(C)C)cc2)cc(OC)c1OC [110f, Hydrochloride]

>  <subject-of-test>
DMS 273 small cell lung cancer

>  <readout-unit>
µM

>  <value-relation-sign>
=

>  <GI50>
12.9

$$$$
>  <compound>
CCOc1ccc(N=Cc2cc(OC)c(OC)c(OC)c2)cc1 [108d]

>  <subject-of-test>
DMS 273 small cell lung cancer

>  <readout-unit>
µM

>  <value-relation-sign>
>

>  <GI50>
100

$$$$
>  <compound>
COc1ccc(NCc2cc(OC)c(OC)c(OC)c2)cc1 [109c]

>  <subject-of-test>
DMS 273 small cell lung cancer

>  <readout-unit>
µM

>  <value-relation-sign>
=

>  <GI50>
0.141

$$$$
>  <compound>
COc1cc(C=Nc2ccc(C(C)C)cc2)cc(OC)c1OC [108f]

>  <subject-of-test>
DMS 273 small cell lung cancer

>  <readout-unit>
µM

>  <value-relation-sign>
=

>  <GI50>
52.5

$$$$
